# study_conditions: 313.15 K; 100 kPa; Liquid; Capillary tube (Ostwald / Ubbelohde) method
Examples of compounds with documented viscosity follow.

>  <compound>
C1CC[C@H]2CCCC[C@@H]2C1 [trans-decahydronaphthalene]

>  <viscosity, mPa·s>
1.505

$$$$
>  <compound>
CCCCCCCCCC [decane]

>  <viscosity, mPa·s>
0.709

$$$$
>  <compound>
C1CC[C@H]2CCCC[C@H]2C1 [cis-decahydronaphthalene]

>  <viscosity, mPa·s>
2.252

$$$$
>  <compound>
CCCCCCCCC [nonane]

>  <viscosity, mPa·s>
0.571

$$$$
>  <compound>
CCCCCCCCCCC [undecane]

>  <viscosity, mPa·s>
0.862

$$$$
